Attribute: half-life
test: Pharmacokinetics following intravenous (IV) dosing; assay type: in vivo, Sprague-Dawley rats; conditions: male, Sprague-Dawley, rat, plasma; hydroxycodone series, 1 mg/kg IV, Mean ± SD; read-out: T1/2(z)
Measurement Type: half-life (h)

Molecule | Measurement Type | Measurement
COCCOCCOCCOCCOC1CCC2(O)C3Cc4ccc(OC)c5c4C2(CCN3C)C1O5 (stereo not drawn) [α-6-mPEG4-O-hydroxycodone, α-6-mPEG4-O-oxycodone] | half-life | 0.727
COCCOCCOCCOCCOCCOCCOCCOCCOCCOC1CCC2(O)C3Cc4ccc(OC)c5c4C2(CCN3C)C1O5 (stereo not drawn) [α-6-mPEG9-O-hydroxycodone, α-6-mPEG9-O-oxycodone] | half-life | 2.38
COCCOCCOCCOCCOCCOC1CCC2(O)C3Cc4ccc(OC)c5c4C2(CCN3C)C1O5 (stereo not drawn) [α-6-mPEG5-O-hydroxycodone, α-6-mPEG5-O-oxycodone] | half-life | 1.03
COCCOCCOCCOCCOCCOCCOCCOC1CCC2(O)C3Cc4ccc(OC)c5c4C2(CCN3C)C1O5 (stereo not drawn) [α-6-mPEG7-O-hydroxycodone, α-6-mPEG7-O-oxycodone] | half-life | 1.45
COCCOCCOCCOCCOCCOCCOC1CCC2(O)C3Cc4ccc(OC)c5c4C2(CCN3C)C1O5 (stereo not drawn) [α-6-mPEG6-O-hydroxycodone, α-6-mPEG6-O-oxycodone] | half-life | 1.04
COCCOCCOCCOC1CCC2(O)C3Cc4ccc(OC)c5c4C2(CCN3C)C1O5 (stereo not drawn) [α-6-mPEG3-O-hydroxycodone, α-6-mPEG3-O-oxycodone] | half-life | 0.808
COCCOCCOC1CCC2(O)C3Cc4ccc(OC)c5c4C2(CCN3C)C1O5 (stereo not drawn) [α-6-mPEG2-O-hydroxycodone, α-6-mPEG2-O-oxycodone] | half-life | 0.743
